// growth inhibition lookup, one value per entry
method.summary: NCI Yeast Anticancer Drug Screen. Data for the rad18 strain (AID 177)
stated.conditions: S. cerevisiae rad18 mutant growth inhibition; at 100.0 µM; active compounds read high
The panel holds about 79,000 compounds, 15% with a hit somewhere; the sample as a whole holds those more often. The source made the active and inactive calls. Cut-off read from the data, not from the text of the source: active = growth inhibition above about 70%; inactive = the rest.

In the examples that follow, each entry is paired with its recorded growth inhibition.
>  <molecule>
CC(O)CN1C(=O)c2cccc3cc([N+](=O)[O-])cc(c23)C1=O (stereo not drawn)

>  <readout.type>
growth inhibition

>  <assay.result>
88% (active)

$$$$
>  <molecule>
Nc1cccc2cc(Cl)cnc12

>  <readout.type>
growth inhibition

>  <assay.result>
90% (active)

$$$$

In the following, a different molecule is considered.
Indicate its recorded growth inhibition; the molecule in question is c1ccc2cc(OCC3CO3)c(OCC3CO3)cc2c1 (stereo not drawn)
92% (active)

Numbers sourced from PubChem BioAssay (NCI).
